Entry source: patent US5919785A

Target: human FPTase (Homo sapiens, UniProt P49354+P49356)
Construct: made in house
Test: In vitro inhibition of ras farnesyl transferase (human FPTase assay)
Assay type: biochemical
Details: human FPTase, [3H]-FPP, 100 nM Ras-CVIM, 30 min; read-out: IC50, inhibitory activity against human FPTase
pIC50: −log10 of the molar value. Structures can show the parent of a compound that is named as a salt.
measured_parameter: pIC50

Which measured pIC50 value corresponds to N#Cc1ccc(Cn2cncc2CN2CC(=O)N(Cc3ccccc3)CC2=O)cc1 [Example 5, hydrochloride] ?
≥ 4.30
